Test system: HCT-116 colon
Assay: NCI tumour cell line growth inhibition, 48 h
propertyMeasured: TGI

In the examples that follow, each entry is paired with its recorded TGI.
q: Entry `CCN1CCN(c2cc(C)nc(N(CCNc3ccnc4cc(Cl)ccc34)Cc3ccc4c(c3)OCO4)n2)CC1` : reported TGI = ?
a: 2.39 µM

q: How about this compound: `O=C(N/N=C/c1ccccc1O)c1ccccc1O`
a: > 100 µM

q: Further, for `C#C[C@]1(O)CC[C@H]2[C@@H]3CCC4=CC(=NCCOC(=O)c5cccc6c(=O)c7ccccc7[nH]c56)CC[C@@H]4[C@H]3CC[C@@]21C` ?
a: > 100 µM

q: // same read-out, input: `O=C(Nc1ccc(CN2CCOCC2)cc1)c1ccc(-c2cc(Cl)ccc2Cl)o1`
a: 21.4 µM

---
q: Which measured TGI value corresponds to `COC(=O)c1cc(OC(C)=O)c2c(OC)ccc(OC)c2c1` ?
a: > 100 µM

q: Follow-up entry: Nc1nc(SCCC/C=C/B(O)O)nc2c1ncn2C1OC(COP(=O)(O)O)C(O)C1O (stereo not given)
a: > 203 µM

q: Try `CCCCN1CCN(c2ccc3nc(-c4ccc5nc(-c6ccc(OC)c(OC)c6)[nH]c5c4)[nH]c3c2)CC1` next.
a: 1.45 µM

q: Try this compound too: `CC(=O)NCCc1c(-c2[nH]c3ccccc3c2CCNC(C)=O)[nH]c2ccccc12`
a: > 100 µM

q: Ok, now `O=C(NCc1ccc(Cl)cc1Cl)c1ccc(NC2=C(Cl)C(=O)N(Cc3ccccc3)C2=O)cc1`
a: > 100 µM

q: Proceed to `Cn1ncc2[nH]cnc2c1=S`
a: > 100 µM

Entry source: PubChem BioAssay (NCI)
